targetOrTestSystem: T1, recombinant human ErbB3/Fc fusion protein (human, UniProt P21860 20-643)
T1 construct: Bought (R&D Systems, Cat. No. 348-RB); the NRG1-α1 assay names Cat. No. 4518-RB instead; also called rhErbB3-Fc; rhErbB3/Fc; not shown: Fc portion of the bought fusion protein
methodDescription: SPR Biacore T100, 25 C; antibody captured on anti-mouse IgG, rhErbB3-Fc injected
Entries and their kon values follow.

[
  {
    "binder": "04D01 (antibody, mouse IgG1, kappa, V domains shown, Murine IgG1/kappa, purified from hybridoma; also called anti-hErbB3 monoclonal antibody 04D01) VH: QVQLQQPGAELVRPGTSVKLSCKASGYTFTSHWLHWVKQRPGQGLEWIGVLDPSDFYSNYNQNFKGKATLTVDTSSSTAYMQLSSLTSEDSAVYYCARGLLSGDYAMDYWGQGTSVTVSS VL: DVLMTQIPLSLPVSLGDQASISCRSSQSIVHSNGNTYLEWYLQKPGQSPKSLIYKVSNRFSGVPDRFSGSGSGTDFTLKISRVEAEDLGVYYCFQGSYVPWTFGGGTKLEIKR",
    "kon, M⁻¹ s⁻¹": 380000
  },
  {
    "binder": "11G01 (antibody, mouse IgG1, kappa, V domains shown, Murine IgG1/kappa, from hybridoma; also called anti-hErbB3 monoclonal antibody 11G01) VH: QVQLQQSDAELVKPGASVKISCKVSGYTFTDHIIHWMKQRPEQGLEWIGYIYPRDGYIKYNEKFKGKATLTADKSSSTAYMQVNSLTSEDSAVYFCARGYYYAMDYWGQGTSVTVSS VL: DVLMTQTPLSLPVSLGDQASISCRSSQSIVHSIGNTYLEWYLQKPGQSPKLLIYKVSNRFSGVPERFSGSGSGTDFTLKISRVEAEDLGVYYCFQGSHVPFTFGSGTKLEIKR",
    "kon, M⁻¹ s⁻¹": 270000
  },
  {
    "binder": "18H02 (antibody, mouse IgG1, kappa, V domains shown, Murine IgG1/kappa, from hybridoma; also called anti-hErbB3 monoclonal antibody 18H02) VH: QIQLVQSGPELKKPGEAVKISCKSSGYTFTTYGMSWVKQAPGRALKWMGWINTYSGVPTYADDFKGRFAFSLESSASTAYLQINNLKNEDTATYFCARGRDGYQVAWFAYWGQGTLVTVSA VL: ETTVTQSPASLSMAIGDKVTIRCITSTDIDDDMNWFQQKPGEPPKLLISEGNTLRPGVPSRFSGSGYGTDFIFTIENMLSEDVADYYCLQSDNLPYTFGGGTKLEIKR",
    "kon, M⁻¹ s⁻¹": 280000
  },
  {
    "binder": "09D03 (antibody, mouse IgG2b, kappa, V domains shown, Murine IgG2b/kappa, from hybridoma; also called anti-hErbB3 monoclonal antibody 09D03) VH: QVTLKESGPGILRPSQTLSLTCSFSGFSLSTFGLSVGWIRQPSGKGLEWLAHIWWDDDKYYNPALKSRLTISKDTSKNQVFLKIANVDTADTATYYCARIGADALPFDYWGQGTTLTVSS VL: DIVLTQTAPSVPVTPGESVSISCRSSKSLLHSNGNTYLYWFLQRPGQSPQLLIYRMSNLASGVPDRFSGSGSGTAFTLRISRVEAEDVGVYYCMQHLEYPFTFGSGTKLEIKR",
    "kon, M⁻¹ s⁻¹": 270000
  },
  {
    "binder": "12A07 (antibody, mouse IgG1, kappa, V domains shown, Murine IgG1/kappa, from hybridoma; also called anti-hErbB3 monoclonal antibody 12A07) VH: QVQLLQPGAELVRPGTSVKLSCKTSGYTFSSYWMHWVKQRPGQGLEWIGMIDPSDVYTNYNPKFKGKATLTVDTSSSTAYMQLSSLTSEDSAVYYCARNYSGDYWGQGTTLTVSS VL: DVLMTQIPLSLPVSLGDQASISCRSSQSIVHSNGNTYLEWYLQKPGQSPKLLIYKVSNRFSGVPDRFSGSGSGTDFTLKISRVEAEDLGVYYCFQGSYVPWTFGGGTKLEIKR",
    "kon, M⁻¹ s⁻¹": 620000
  },
  {
    "binder": "22A02 (antibody, mouse IgG1, kappa, V domains shown, Murine IgG1/kappa, from hybridoma; also called anti-hErbB3 monoclonal antibody 22A02) VH: QVQLQQPGAELVRPGTSVKLSCKASGYTFTNYWMHWVKQRPGQGLEWIGMIDPSDSYTNYNPKFKGKATLTVDTSSSTAYMQLSSLTSEDSAVYYCARNYSGDYWGQGTTLTVSS VL: DVLMTQTPLSLPVSLGDQASISCRSSQSIVHSNGNTYLEWYLQKPGQSPKLLIYKVSNRFSGVPDRFSGSGSGTDFTLKISRVEAEDLGVYYCFQGSYVPWTFGGGTKLEIKR",
    "kon, M⁻¹ s⁻¹": 700000
  }
]

Taken from patent US20180030149A1.
